molecules and their reported Ki
- assayed-system: Aromatase (Homo sapiens)
- Sequence (P11511 whole entry): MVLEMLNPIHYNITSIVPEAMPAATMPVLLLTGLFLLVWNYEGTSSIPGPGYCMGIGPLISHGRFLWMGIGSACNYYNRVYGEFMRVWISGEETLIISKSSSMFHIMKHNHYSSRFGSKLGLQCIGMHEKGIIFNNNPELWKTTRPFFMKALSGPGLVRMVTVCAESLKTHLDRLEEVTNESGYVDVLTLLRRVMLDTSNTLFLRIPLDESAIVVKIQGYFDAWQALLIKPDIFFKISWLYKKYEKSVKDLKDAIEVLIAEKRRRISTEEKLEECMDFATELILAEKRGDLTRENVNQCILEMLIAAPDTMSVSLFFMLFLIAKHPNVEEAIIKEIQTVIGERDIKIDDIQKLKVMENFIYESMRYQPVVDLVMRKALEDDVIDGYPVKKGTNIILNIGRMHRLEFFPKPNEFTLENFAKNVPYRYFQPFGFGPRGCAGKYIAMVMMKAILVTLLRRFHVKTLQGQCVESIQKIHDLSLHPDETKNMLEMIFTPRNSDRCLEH
- assay: Binding affinity to human placental aromatase in MCF7 cells assessed as inhibition constant
readout: Ki (nM)

INSERT INTO results (molecule, reported) VALUES
  ('COc1ccc(-c2cc(=O)c3c(O)cc(OC)cc3o2)cc1', 2100),
  ('O=C1C[C@@H](c2ccccc2)Oc2cc(O)cc(O)c21', 10800),
  ('COc1cc(O)c2c(c1)OC(c1ccc(O)cc1)CC2=O (single isomer, unassigned)', 1200),
  ('C=C(C)[C@H]1Cc2c(ccc3c2O[C@@H]2COc4cc(OC)c(OC)cc4[C@@H]2C3=O)O1', 300);
